assay: inhibition of PEG-3 promoter activity – cell-based, HeLa, luciferase luminescence, primary screen (AID 588405); conditions: HeLa PEG-Prom luciferase reporter, overnight, at 20 µM, hits give high values
Among all 360,000 compounds or so, about 6,200 (1.7%) were called active. The sample as a whole holds a higher share of actives than the screen did.
measured.metric: inhibition (%)

> print(dat)
                                    compound  measured.metric  quantitative.readout
 1  CCOC(=O)C1=C(CC)OC(N)=C(C#N)C1c1ccc(F)cc1F (stereo unspecified)       inhibition                  8.52
 2  CCCc1nc2c([nH]1)C(c1cccnc1)C(C#N)=C(N)O2 (stereo unspecified)       inhibition                 -0.33
 3  COc1cc(C(O)c2nc(-c3cnn(C)c3)cs2)ccc1F (stereo unspecified)       inhibition                  9.83
 4  Cc1cccc(CNC(=O)c2sc(=O)n(Cc3ccccc3C)c2C)c1       inhibition                  3.15
 5               CNc1cc(-c2c(OC)cccc2OC)ncn1       inhibition                 -4.17
 6  CSc1ccc(CNC(=O)C2(C)CCCN2C)cc1 (stereo unspecified)       inhibition                  7.21
 7            Cc1ccc(COc2ccc(C(=O)NN)cc2)cc1       inhibition                 -58.5
 8  CC(C)C[C@H]1CNC(=S)N1C[C@H]1CCCN1C[C@H](Cc1ccc(O)cc1)N1C[C@H](Cc2ccc(O)cc2)N(CC2CCCCC2)C1=S       inhibition                  99.5
 9  O=C(NCc1cccnc1)c1cc(C2CCCN(C(=O)C3CCCCC3)C2)on1 (stereo unspecified)       inhibition                  3.87
10  CCC1(C)Cc2c(sc3nnn(CC(=O)Nc4ccc(Cl)cc4)c(=O)c23)CO1 (stereo unspecified)       inhibition                  11.2
11            CSc1nc(-c2ccccc2)nc(C(Cl)Cl)n1       inhibition                  98.3
12  CCOc1ccc(CCN2C(=S)N([C@@H](CC(C)C)CN3CCC[C@@H]3CN3C(=S)NC[C@@H]3Cc3ccc(O)cc3)C[C@@H]2CC(C)C)cc1       inhibition                  14.2
13  CC(C)Cn1c(N)c(C(=O)COC(=O)CN2C(=O)C3CC=CCC3C2=O)c(=O)n(C)c1=O (stereo unspecified)       inhibition                  21.8
14  Cc1ccccc1-c1nc(NC(C)C)nc2cc(-c3ccccc3)sc12       inhibition                  7.19
15  Nc1nc2c(ncn2[C@@H]2O[C@H](CNCc3ccc(OCCCN4CCOCC4)cc3)[C@@H](O)[C@H]2O)c(=O)[nH]1       inhibition                 -2.38
16  Cc1ccc(CN2CCC(N3CCC(C(=O)NCC4CCCO4)CC3)CC2)o1 (stereo unspecified)       inhibition                  -0.4
17  Nc1ncnc2c1ncn2[C@@H]1O[C@H](C(=O)N2CCSC2)[C@@H](O)[C@H]1O       inhibition                 -1.06
18  CCOC(=O)C1=C(C)OC(N)=C(C#N)C1c1cncc(-c2ccc(F)cc2)c1 (stereo unspecified)       inhibition                   101
19  CCCc1cc(=O)[nH]c(SCC(=O)N2C(C)CCCC2C)n1 (stereo unspecified)       inhibition                  0.43
20  CC1(C(=O)NCc2ccc3c(c2)OCO3)CCN1C(=O)Cc1cccs1 (stereo unspecified)       inhibition                 -1.89
21       Cc1noc(C)c1COC(=O)Cn1c(C)nc2ccccc21       inhibition                  8.44
